B1: PLAGL1 (parent)
chain: CKDFLCQFCAQRFGRKDHLTRHTK

- Variants of: B1
- procedureText: protein stability index of a GFP-peptide fusion (GPS, HEK-293T) (PSI 1-6); higher = more stable;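 note: lentivirally expressed fusions sorted by FACS into six bins by GFP to DsRed ratio, PSI derived from sequencing read proportions per bin multiplied by bin number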
- experimentalSetup: c terminus: a fixed tail appended
Each entry below carries its reported protein stability index.
Just the number, please, no unit attached.

sequencestring=CKDFLCQFCAQRFGRKDHSTRHTK valuereported=2.13
sequencestring=CKDFLCQFCAQRFPRKDHLTRHTK valuereported=2.46
sequencestring=CKDFLCQFCAQRFGRKDDLTRHTK valuereported=1.68

Query: protein stability index; subject: `CKDFLCQFCSQRFGRKDHLTRHTK`
2.24

Repeat for the following variant: `CKDFLCQFCAQRFGRKDHLTKHTK`
2.27

Repeat for the following variant: `CKDFLCQFCAQRFFRKDHLTRHTK`
1.79

Repeat for the following variant: `CKDFLCQFCAFRFGRKDHLTRHTK`
1.82

Repeat for the following variant: `CKDFLCQFCEQRFGRKDHLTRHTK`
1.69

Repeat for the following variant: `CKDFLCQFCYQRFGRKDHLTRHTK`
2.16

Repeat for the following variant: `CKDFLCQFCAQRFGRKDHLTRHTP`
2.21

Repeat for the following variant: `CKDFLCQRCAQRFGRKDHLTRHTK`
3.32

Repeat for the following variant: `CKDFLCQFCAQRFGRKDHLLRHTK`
2.22

Repeat for the following variant: `CKDFLCQFCAQRFGRKDHWTRHTK`
1.65

Repeat for the following variant: `CKDFLCQFCPQRFGRKDHLTRHTK`
2.03

Repeat for the following variant: `CKDFLAQFCAQRFGRKDHLTRHTK`
2.18

Repeat for the following variant: `CKDFLCQFCAQRFGRKDHLTRCTK`
2.4

Repeat for the following variant: `CKDFLCQFCAQRFGRKDHLTAHTK`
1.94

Repeat for the following variant: `CKDFLCQFCAQRFGRKDHLTRHTI`
2.08

Repeat for the following variant: `CKDFLCAFCAQRFGRKDHLTRHTK`
2.38

Repeat for the following variant: `CKPFLCQFCAQRFGRKDHLTRHTK`
1.73

Repeat for the following variant: `CKDFLCQFCAQRFGEKDHLTRHTK`
2.52

Repeat for the following variant: `CSDFLCQFCAQRFGRKDHLTRHTK`
1.74

From: the supplement of paper PMC10567573
